Reported values of protease stability score for individual entries
# Experimental protocol: protease stability score; higher = more stable; yeast display proteolysis, trypsin and chymotrypsin

DEEEEHWKHIAKEYLDNFRTGDWKNFMDNADPDYRFILSQGNKEDNHHGMHFFVEWILRFLKKFKNATFVLRHFSIQGNKIHMELDITVGDKRIDTKINIEIIDGVVHTIEIRLD : 0.821

Summary for this sequence, `SELNEISEEAVEWFRKVLLTGNEDLLLNLADPNVRYEVGDKRRVGRESMIEQIQHFLHEMGINHIHSVHIRDVRIQGDYIEVDSELETTVNGQKMYIHMFLRARKIDGKWILDRIYVH` : protease stability score is 1.02

So, `STLEEHVFRMAYEIITDLETGDEEYYKKRADPDMYVHIRIGDKEVEIHGREHFIQWVKRLFEEIRIHWRIRDMHIVDGVYRFHTELEIRIGDKEHRIKSEVKVVVVNGKIKQLEIRIK` ? Its protease stability score was 2

Lab note: measured protease stability score of `IEQKEAWDEVYRIFVEAVRTGDWKSFERLLDPHTRIHFENREFHGREALEHDREKYKNMKLEHIEIKDQRVQGDKVIQFSHVVGNIDGRRLRFDIEIQFSKVDGVWTIELVIVR` was 1.52

Notebook: `DETHVQMERFIEEHIKSHITGDEDYLRENIDPEARVVIDGQTYHGWKAIKDAIDQWRVTDMRIRHVRVQGEKVDIHGRLHVDVNGRNIDLEVRIIVTKVDGRWVVDQLIFN` , protease stability score read as 1.16

----------
# Experimental protocol: protease stability score; higher = more stable; yeast display proteolysis, trypsin and chymotrypsin;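 further: relative to predicted unfolded state with 0 unfolded-like and 1 meaning tenfold more protease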
protease stability score vs 1: at or above is satisfied, below is not satisfied.

Before answering, review these 8 worked examples.
DEDKKLAHESFRIWLHWMRTGDEKMMEELMDPNTRTYFEGHSDHGRSAARQYANRIDHIHHIHVHHIEIQGDKVEVDGRLDGVVNGKRIDVRIVIESVKVNGKWIVRSIEEH : satisfied
SSQEKFLKELVEIWVELWRTGNEEAFKRLADPDAKNDVNGVYSHGMENVEKLLKHFGIKHVEINDVKVQGDKVIMDGIIEFNGVTIKEHVEIVIVNGRFKELRIRRE : not satisfied
TEEEEHALTLMKEWVHNHETGNEDHLSHLMDPNYRWVQGDWHLHGMEDFSRELNKTLDKMGMTEHLRLKDFKVQGNFVEVIGTQHLHINGRTIKIDSTLKLNVINGRIHEVRYTLH : not satisfied
SEDEKDAEKMSERFLHMFITGNEELFRDLADPHTRLKVNGVHNHGREHVEILNKEFLTRLGVNYYEEHDVRYRVIDGVVFIDIVGHMNIDGQETEVTLHWRVLKVNGRWRITEVDIRRH : satisfied
REKDDLLHEFTERYMTAIETGDEETLEKLMDPDVKLHVGEYHDHGREDVSEWLRTHLEQWRIERIEIQHVDLQGDKLRVDLIVHARVGDKRIILHTILISRKINGRWHIKFFSMR : satisfied
SEREDEMNHSRHLIEDSWRTGDFHITVRLADPHMKVIVGDYEYHGREHLHEVARNADIYHRIHINDWRIIGNKVEIDTEIDGFFNGVPHRTRVEIILSKINGRWILRSIIFR : satisfied
TEEDEHSRVAIEQTIRTLETGDEKEWERELDPHVRINIGEKHFHGRERAVELWLRLGVKHFRIKEVEHQGNKIIVHGSINVNGVKIEMYSIAEKIDGKWHLTHMHIP : satisfied
DEEEEIFRHLFKLFVDATETGDEHILKELLDPHTRIHVNGQDFHGRENAIHFWRHMRIDEIRLKEIEVQGDKIHITGHVRGQIDGQQVRTDFELIMVKIDGRWKIHSEIYH : satisfied

Ask: Reported protease stability score at or above 1? `DEDHEILHRLWELLIKLLKTGDEEIMKRLADPDTKVEAEGRKLIGRDEFVKWMREFSKRFDHVEIRFKRMHIINGRVYMNGHIVEQQGEYQYRQDTIIVSEKVDGRWLITHIHIE`
Reply: satisfied

Ask: Evaluate `SEEEEMAHRVLEILLYALRTGDEKWMRKLVDPNVRLHVNGVEFHGRDEYTKFLHEHINRFDHFHSLTVTEIRHQGDFIVLHTILNIQWDGRSTRIDIHIIVLKVNGRWLLHSSSIE` : protease stability score at minimum 1?
Reply: satisfied

Ask: Is it the case that `DRDQHQAEKAFKLLVDILQTGDEEEIYKMADPHMQIDFDGRLHHGRDEFVKLVSETIRKFKNIRVEIHHIEVFDGRMHTDSRIHVGDKEWTIDIHIQKVNGKWKLKHVRVD` has protease stability score reaching or exceeding 1?
Reply: not satisfied

----------
Recorded protease stability score, one value per entry.
# Experimental protocol: protease stability score; higher = more stable; yeast display proteolysis, trypsin and chymotrypsin;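 further: relative to predicted unfolded state with 0 unfolded-like and 1 meaning tenfold more protease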
Please give the numeric answer without any surrounding text.

Record excerpt, results attached:
DESQRDAHHASELVELVEKTGDWKMFEKLLDPHVRLQVGDKEFHGRHEAMRWIRETLERLGIDHREVRIEHIEFIGDKMIIHGEIILRFNGVTITHEEEFIVKKINGKWRMHEIRVR : 1.29
SDFEEITRKITEIITRAFFTGDWRQIERLMDPEVRNELTIGDKRIERHGRENLVHLLEEAGIDVIRIRSVEIRFFNGRLEVRIDHEVTINGVHFKTVIVVIMIKIDGRWVVHSWSFHFE : 0.959

Pending sequence:
`DEATEAWRVVVELIKRANETGDEETRSENMDPETRMSIDGVDFIGREEVIKHVHKVKNMRIKHVEINDVRIQGDKIHVRGTLHGTVNGRETRIDVVLYVWKINGQWIIHSIEFI` has a reported protease stability score of 1.5

----------
# Experimental protocol: protease stability score; higher = more stable; yeast display proteolysis, trypsin and chymotrypsin;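 further: relative to predicted unfolded state with 0 unfolded-like and 1 meaning tenfold more protease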
Recorded protease stability score by entry

// below: answered sequences
DEEEKHVRKMVEIESHSHQTGDFDSIRELADPHMRIDINGVELHGWKEFERFLREIRVHHIKIKSVRDINGVAVVDTIVHGHIDGRTDTFDAHVVILKINGQWRIKSIKIE : 0.918
NEEEQEILEDVEEHIRAEYTGDEEVLDNLADPNTRIHYGEKELHGREEWLQLVHDEHNRFKGMKIEVIIRHIDIYDGRVRSEGELHIHVGDKEYHVDVQMILTKVNGRWLLTRIHFH : 0.093

Now turn to the next sequence.
Please fill in: protease stability score reported for `SEEQEVARDFFKILTHFHQTGNEEIVHELFDPNVRLHVGDKEVHGREEFIKVERELRTDDMHLRHVELQGEFIRIDVRAKGRVNGRDLEFHVHIVVRKVNGRWILTSLHIK` = 0.446

----------
Reported protease stability score values follow for various sequences
# Experimental protocol: protease stability score; higher = more stable; yeast display proteolysis, trypsin and chymotrypsin;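 further: relative to predicted unfolded state with 0 unfolded-like and 1 meaning tenfold more protease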
Simply state the number, no unit and no words.

Guide cases for protease stability score, answers given:
DEEEEHMRKMHEKFRKIRHTGNFEDYFRLLDPNARMHVNGQNMHGRDVVSKWFKHFVEEIRIEHFEIHDVKYIDGRSHEDGWLVGTIDGKHFDSRTEIILIVVDGKLKQFHIHIR : 0.489
SEEEESSHNAIKIWMETMETGNEELYLRLLDPHTRLDVNGKEFIGREVLKMFKKQIDHVKDVDVEHVEVQGDKVILNGRVRGDINGVERNTIEHLIVRKIDGRWRITEFSIR : 0.94
REEEEEIRFAEEFWMELEKTGDEHKILRMADPNVRVRIGDKHHHGREHLRRVIEWRLEYAGIDKIEVRLRRVTIINGRVHIDGELIVGDKEHRVEIILVKINGRWILHEFEIR : 1.5
DEDHHLVQLASEIVSKLIHTGDEEMIYHLADPHTRNDVNGKVFHGRDEMLKYLHDRWRHFGVERINHIVHHIRVVDGRADIDGRLHVGDKDFTVHIHMEKVNGRWVIKEIRIK : 0.68
DELRTHAKKMILILFHHLLTGDEEWLHRFMDPSTRRDVGDKELHGMEQITHDIVKEIFLRGAEIHITIRTFRFQGNYLDANIEIKIIVNGQEIHFEVLIHIVKVDGVWLVRSMRFH : 1.43

The measured protease stability score associated with `HEEEKQIHDIIEIIIRLLVTGNEEIHKRLADPHVRVEVGDKHFHGREEVTKFLMRIDHVQHVDHRIHRMDIIDGRADVHGDLLIDGDFDGRRTRTDIRVRWRIIKIDGRWILHSYSVL` reads 1.24

Per the records, this sequence ( `DEEEEHMKHHLDLWIKLVQTGNEEHIARMIDPNARFDINGKEEHGRESFRKHLHEILKFFGVDRFHHEIKELRVIDGRVHSVTLWEINGQRLDTRIHAHKVNGVWLVHSLEIK` ) has protease stability score equal to 1.14

The value of protease stability score measured for the sequence `SEEEEQSRIAIELVKEVHDTGDEHLLKRLMDPNAKVDIGDKTHHGREIFSHLVHRWFHTLGVDHVKIHDLDFQGDFMIIHMVEVIGDKHVHVHIYTLKVNGRWYIRHLRVERR` turned out to be 0.967
